Would you kindly list cell viability for each of these molecules?
Tested on: K-562
ASSAY TEXT: cell viability (% survival relative to DMSO control, bortezomib = 0%); higher = less cytotoxic
RUN CONDITIONS: 1 nM; 72 h
The reply should be a number in %, with the unit left off.

# value lookup — system K-562, readout cell viability, item `OCCN1C[C@H](O)[C@@H](O)[C@H](O)[C@H]1CO` 97.8

# value lookup — system K-562, readout cell viability, item `CN(C)CCNC(=O)c1cccn2c(=O)c3cc4ccccc4cc3nc12` 108

# value lookup — system K-562, readout cell viability, item `CC(C)(CS(=O)(=O)[O-])NC(=O)CC[N+](C)(C)CCO` 108

# value lookup — system K-562, readout cell viability, item `O=C(Cc1cccc(OC(F)(F)F)c1)Nc1ccc(CCCCc2nnc(NC(=O)Cc3ccccn3)s2)nn1` 145

# value lookup — system K-562, readout cell viability, item `O=c1[nH]c(=O)n([C@H]2C[C@H](O)[C@@H](CO)O2)cc1I` 85.6

# value lookup — system K-562, readout cell viability, item `CCCC(CCC)C(=O)O` 107

# value lookup — system K-562, readout cell viability, item `Cc1nc(-c2ccc(OCC(C)C)c(C#N)c2)sc1C(=O)O` 100

# value lookup — system K-562, readout cell viability, item `Oc1ncc(F)c(O)n1` 101

# value lookup — system K-562, readout cell viability, item `O[C@H]1[C@H](O)[C@@H](O)CN2CC[C@H](O)[C@H]12` 95.1

# value lookup — system K-562, readout cell viability, item `CN1CC(=O)N2[C@H](c3ccc4c(c3)OCO4)c3[nH]c4ccccc4c3C[C@@H]2C1=O` 108

# value lookup — system K-562, readout cell viability, item C[C@H]1O[C@H](O[C@H]2[C@H](O)[C@@H](O)[C@@H](O[C@H]3[C@H](O)[C@@H](O)C(O)O[C@@H]3CO)O[C@@H]2CO)[C@H](O)[C@@H](O)[C@@H]1N[C@H]1C=C(CO)[C@@H](O)[C@H](O)[C@H]1O (mixture of isomers) 111

# value lookup — system K-562, readout cell viability, item `c1ccc2nc(-c3nnc4sc(-c5cnccn5)nn34)ccc2c1` 110

* * *

Test system: BV-173
ASSAY TEXT: cell viability (% survival relative to DMSO control, bortezomib = 0%); higher = less cytotoxic
RUN CONDITIONS: 1000 nM; 72 h
VALUE KIND: cell viability (%)
The reply should be a number in %, with the unit left off.

// query cell viability value for entry `c1ccc2c(c1)SCc1c-2[nH]c2ccccc12` 27.6

// query cell viability value for entry `O=C1N[C@@H]2[C@@H](O)[C@@H](O)[C@H](O)[C@@H](CO)N2C1=O` 86.7

// query cell viability value for entry `O[C@H]1[C@H](O)[C@@H](O)CN2CC[C@H](O)[C@H]12` 82.4

// query cell viability value for entry `Cn1cc(C[C@@H](N)C(=O)O)c2ccccc21` 84.7

// query cell viability value for entry `Cl.OC[C@H]1NC[C@H](O)[C@@H](O)[C@H]1O` 105

// query cell viability value for entry `O=c1[nH]c(=O)n([C@H]2C[C@H](O)[C@@H](CO)O2)cc1I` 15.6

// query cell viability value for entry `CCCCCCCCCCCCC/C=C/[C@@H](O)[C@H](CO)N(C)C` 74.2

// query cell viability value for entry `Cc1cc(O)c2c(c1)C(=O)c1cc(O)cc(O)c1C2=O` 74.6

// query cell viability value for entry `Cc1nc(-c2ccc(OCC(C)C)c(C#N)c2)sc1C(=O)O` 99.7

// query cell viability value for entry `C=C1NC(=O)c2cc(CN(C)c3ccc(C(=O)N[C@@H](CCC(=O)O)C(=O)O)s3)ccc2N1` 1.32
